Experiment: Cytotoxicity against Influenza A virus (A/Viet Nam/1203/2004(H5N1)) infected MDCK cells
Format: cell-based, Canis lupus familiaris
Conditions: dog
Entries and their CC50 values follow.
Reply with just the number (in µM).

Illustrative cases are given below, each with its answer.
CC(C)C1=C[C@@]23CC[C@H]4[C@](C)(CO)CCC[C@]4(C)[C@H]2C[C@@H]1[C@@H]1[C@H]3[C@@H](O)CC[C@@H]1O : 29
COC(=O)[C@H]1[C@@H](C(=O)OC)C2(C(=O)OC)CC[C@@H]3[C@](C)(CCC[C@@]3(C)C(=O)OC)[C@H]2C[C@H]1C(=O)C(C)C (some centres not stated) : 3.3
COC(=O)[C@]1(C)CCC[C@]2(C)[C@H]3C[C@H]4C(C(C)C)=C[C@]3(CC[C@H]21)[C@@H]1C(=O)CC[C@H](OCCC#N)[C@@H]14 : 31
COC(=O)[C@H](C)NC(=O)[C@]1(C)CCC[C@]2(C)[C@H]3C[C@H]4C(C(C)C)=C[C@]3(CC[C@H]21)[C@@H]1C(=O)CCC(=O)[C@@H]14 : 33
COC(=O)[C@]1(C)CCC[C@]2(C)[C@H]3C[C@H]4C(C(C)C)=C[C@]3(CC[C@H]21)[C@@H]1/C(=N/O)CC[C@H](O)[C@@H]14 : 1.2
COC(=O)[C@]1(C)CCC[C@]2(C)[C@H]3C[C@H]4C(C(C)C)=C[C@]3(CC[C@H]21)[C@H]1[C@@H]4[C@@H](OC(=O)c2cccnc2)CC[C@@H]1OC(=O)c1cccnc1 : 8.5

Query string: Hello, please tell me recorded CC50 for this one: `COC(=O)[C@]1(C)CCC[C@]2(C)[C@H]3C[C@H]4C(C(C)C)=C[C@]3(CC[C@H]21)[C@@H]1/C(=N/O)CCC2(OCCO2)[C@@H]14`
Result string: 3.3

Query string: Hello, please tell me recorded CC50 for this one: `COC(=O)[C@]1(C)CCC[C@]2(C)[C@H]3C[C@H]4C(C(C)C)=C[C@]3(CC[C@H]21)[C@H]1[C@@H]4[C@@H](OC(=O)/C=C/c2ccccc2)CC[C@@H]1OC(=O)C=Cc1ccccc1`
Result string: 8.2

Query string: Hello, please tell me recorded CC50 for this one: `COC(=O)[C@]1(C)CCC[C@]2(C)[C@H]3C[C@H]4C(C(C)C)=C[C@]3(CC[C@H]21)[C@H]1[C@@H]4[C@@H](OC(=O)CCC(=O)O)CC[C@@H]1OC(=O)CCC(=O)O`
Result string: 3.2

Query string: Hello, please tell me recorded CC50 for this one: `COC(=O)[C@]1(C)CCC[C@]2(C)[C@H]3C[C@H]4C(C(C)C)=C[C@]3(CC[C@H]21)[C@@H]1C(=O)CC[C@H](OC(=O)/C=C/c2ccccc2)[C@@H]14`
Result string: 9

Query string: Hello, please tell me recorded CC50 for this one: `COC(=O)[C@]1(C)CCC[C@]2(C)[C@H]3C[C@H]4C(C(C)C)=C[C@]3(CC[C@H]21)[C@@H]1/C(=N/O)CCC(=O)[C@@H]14`
Result string: 1.7

Query string: Hello, please tell me recorded CC50 for this one: `COC(=O)[C@H](C)NC(=O)[C@]1(C)CCC[C@]2(C)[C@H]3C[C@H]4C(C(C)C)=C[C@]3(CC[C@H]21)[C@@H]1C(=O)OC(=O)[C@@H]14`
Result string: 33
